EXPERIMENT: qHTS of pediatric cancer cell lines to identify multiple opportunities for drug repurposing: Primary screen for U-2 OS cells (AID 1347096);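 also: plate controls were DMSO wells for no effect and bortezomib positive control wells for full effect; nearly all actives have a fitted effect of over 50% in size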
CONDITION_LABEL: U-2 OS viability, CellTiter-Glo luminescence, 48 h; series mostly up to 46 µM
Results filed as inconclusive are left out. Activity calls are given as the source filed them. Calls follow the shape of the dose curve; as a rule, active = well fitted cell-killing curve with a large enough effect; inconclusive = small, poorly fitted or top-dose-only effect; inactive = flat fitted curve, though single readings scatter.
The reply should be one of these categories: label 1 = active, label 0 = inactive

O=C(Nc1cccc(Br)c1)c1cccc(S(=O)(=O)N2CCCCCC2)c1    label 0

Per the records of this test, what outcome belongs to O=C1NC(=O)C(=Cc2cccc(C(F)(F)F)c2)S1 ?
label 0

# repeat for NC(=O)c1cccc2[nH]c(-c3ccc([C@H]4CCCN4)cc3F)nc12
label 0

# repeat for COC[C@@H](c1ccc(C(F)(F)F)cc1)N1CCN(C2(C)CCN(C(=O)c3c(C)ncnc3C)CC2)C[C@H]1C
label 0

# repeat for CC(C)(C)OC(=O)N[C@H]1CCCCCC=C[C@@H]2C[C@@]2(C(=O)NS(=O)(=O)C2CC2)NC(=O)[C@@H]2C[C@@H](OC(=O)N3Cc4cccc(F)c4C3)CN2C1=O
label 0
